- Tested on: Malme-3M
- ASSAY INFO: NCI tumour cell line growth inhibition, 48 h
Calls of active or inactive are those of the source. Cut-off read from the data, not from the text of the source: active = GI50 up to about 1.1 µM and inactive = higher.
The reply should be one of these categories: Y (active), N (inactive)

Given O=C(O)CCSCCCN1C(=O)c2ccccc2C1=O , state the outcome it received in this test. N

Now this one: NC(CO)c1ccc(OCc2ccccc2)cc1 (stereo unspecified) N

Follow-up item: COC(=O)C1C(OC(=O)c2ccccc2)CC2CCC1N2C(N)=O (stereo unspecified) N

# iterate: N#Cc1c(-c2ccccc2)cc(-c2ccccc2)n(C2OCC(O)C(O)C2O)c1=S (stereo unspecified) N

Quick one: C[n+]1c(-c2ccc(/C=C/C=N\NC(=O)c3ccc(C(=O)N/N=C\C=C\c4ccc(-c5cn6ccccc6[n+]5C)cc4)cc3)cc2)cn2ccccc21 N

CN(C)c1ccc(/C=C/c2ccc3ccccc3[n+]2C)cc1 ? N

Let us now turn to COC(=O)[C@H](CC(C)C)NC1=C(Cl)C(=O)c2c(O)ccc(O)c2C1=O Y

How about this compound: COc1ccc(C(=O)/C=C/c2ccncc2)cc1OC N

One more compound: O=C(CSc1c2ccccc2nc2ccccc12)Nc1ccccc1-c1ccccc1NC(=O)CSc1c2ccccc2nc2ccccc12 N

Try COC(=O)/C(=N/O)C(C(=O)OC)C(=O)C(=O)Nc1c(Cl)cc(C)cc1S(=O)(=O)O (stereo unspecified) next. N

Entry CC(=O)O[C@H]1CC[C@@]2(C)C(=CC[C@@H]3C2CC[C@]2(C)Nc4c(cnn4-c4ccccc4)CC32)C1 (stereo partly specified) please N

Param item: O=c1oc2c(ccc3occc32)c(N2CCCCC2)c1-c1ccccc1 N

And COc1ccc2nc3cc(Cl)ccc3c(NCCC(=O)OCC(O)C(O)C(O[C@H](C)C(=O)NC(C)C(=O)NC(CCC(N)=O)C(=O)OCc3ccccc3)C(C=O)NC(C)=O)c2c1 (stereo partly specified) ? N

Thanks! And CCN(CC)CCOCCn1c2c(c3ccccc31)CCCC2 ? N

Okay, and O=C(CCc1cccc(O)c1)NCCc1cccc(OCc2ccccc2)c1 ? N

Now the same for O=C1NCC2(CCNCC2)N1 N

Another: CCNC(=S)N/N=C1\C(=O)Nc2ccc([N+](=O)[O-])cc21 N

Field entry: COC(=O)CC(=O)C[P+](c1ccccc1)(c1ccccc1)c1ccccc1 N

Now the compound C=CCC1(C(=O)OC)CCC/C(=N\O)C1 (stereo unspecified) N

Same thing, different compound: COC(=O)/C(C#N)=C1\NN=NN1CCCc1ccccc1 N

Subsequent entry: CCCCCCCC(=O)OCC(COC(=O)C(C)(C)C)OC(=O)Cc1ccccc1 (stereo unspecified) N

----------
- System: COLO 205
- ASSAY INFO: NCI tumour cell line growth inhibition, 48 h
Calls of active or inactive are those of the source. Cut-off read from the data, not from the text of the source: active = GI50 up to about 1.1 µM and inactive = higher.
Pick from active, inactive when you respond.

Recorded call for N#Cc1c(-c2ccccc2)cc(-c2ccccc2)n(C2OCC(O)C(O)C2O)c1=S (stereo not drawn) ? inactive

Quick one: CC1C(=O)CC(c2cccs2)N(N=O)C1c1cccs1 (stereo not drawn) inactive

// query: O=C1N[C@@H]2c3c(csc3Br)C(=O)[C@@H]2O1 inactive

Param item: O=C1c2ccccc2C(=O)N1CCSCC(CO)SCCN1C(=O)c2ccccc2C1=O (stereo not drawn) inactive

Next up: Cc1c(NC(=S)NN)c(=O)n(-c2ccccc2)n1C inactive

What would you report for C/C(=N\N=C(/S)N(C)C)c1cccnn1 ? active

Please do the same for COc1ccccc1NC(=O)C(=O)C(c1cnc2ccc([N+](=O)[O-])cc2n1)[N+](=O)[O-] (stereo not drawn) as well. inactive

Consider next the compound CSc1ncnc2c1cnn2Cc1cnnn1COCC(O)CO (stereo not drawn) in the same way. inactive

Continue with Cc1cc(Cl)cc2c1NC(=O)C2(O)C(C)C(=O)c1ccc(Cl)cc1 (stereo not drawn) inactive

Also Cc1cccc(C(C)(C)C)c1NC(=O)CCc1nnc(S)[nH]1 ? inactive

Same thing, different compound: COCCNc1cncc(C(N)=O)c1 inactive

Follow-up item: COc1cc(C2c3cc4c(cc3OC(NCCO)C2C)OCO4)cc(OC)c1O (stereo not drawn) inactive

Another: CCOC(=O)c1ccc(-n2cnc(-c3ccc([N+](=O)[O-])cc3)c2)cc1 inactive

Input Clc1ccc(OCC2NC3CCC2CC3)cn1 (stereo not drawn) inactive

Also CC(=O)O/N=C/c1cc2c(cc1Br)OCO2 , if possible. inactive

One more compound: CSc1cc(Cl)c(C)cc1S(=O)(=O)NC(=O)NNc1cnc2ccccc2n1 inactive

Cool, now C/C(=N/O)c1cccc(Nc2nc3ccc(Cl)cc3c3[nH]c4ccccc4c23)c1 inactive

What about this compound? NCCSc1nc2ccccc2s1 inactive

Thanks! And NS(=O)(=O)c1ccc(/C=C/c2ccc(O)cc2)cc1 ? inactive

Could you do the same for CCOC(=O)C(NC(=O)CC)(Nc1ccc(S(=O)(=O)Nc2onc(C)c2C)cc1)C(F)(F)F (stereo not drawn) , please? inactive

What do you have for COc1ccc2c(c1)[n+]([O-])c(C(=O)C/C(=N\NC(=O)C[N+](C)(C)C)C(=O)Nc1cc(Cl)ccc1Cl)c(C)[n+]2[O-] ? inactive

Then what about the compound COc1ccccc1CNCCCCCNCCCCCCCCCCNCCCCCNCc1ccccc1OC ? inactive

What do you get for COc1ccc(NC(C)=O)c(C(=O)CCNC(C)=O)c1 ? inactive

----------
- Test system: HOP-92
- ASSAY INFO: NCI tumour cell line growth inhibition, 48 h
Activity calls are given as the source filed them. Rule as the data show it: active = GI50 up to about 1.1 µM and inactive = higher.
ENDPOINT: GI50

Recorded GI50 for COc1cc(O)c(C(=O)/C=C/c2ccc(O)cc2)cc1Oc1ccc(C(=O)/C=C/c2ccc(O)cc2)c(O)c1 , please? 4.36 µM (inactive)

Same thing, different compound: CN(C)CCCN1c2ccc([N+](=O)[O-])cc2CCc2cc([N+](=O)[O-])ccc21 5.41 µM (inactive)

Now try COC(=O)/C=C1/OC(c2ccccc2)=C(Br)C1=O . 64.4 µM (inactive)

What would you report for Cc1ccc(NC(=O)/C(C#N)=C/c2ccccc2)c(C)c1 ? > 100 µM (inactive)

Next up: CCc1ccccc1NC(=O)CCc1n[nH]c(=S)o1 > 100 µM (inactive)

And what about the compound COC(=O)/C(=C\C(=O)c1ccc(Br)cc1)NN=C(c1ccccc1)c1ccccc1 ? > 10 µM (inactive)

Follow-up item: O=C(CSc1c2ccccc2nc2ccccc12)Nc1ccccc1-c1ccccc1NC(=O)CSc1c2ccccc2nc2ccccc12 30.8 µM (inactive)

Lookup O=C(Cc1ccccc1)Oc1ccc2c(-c3ccccc3)c(C(=O)Nc3ccc(Cl)cc3)c(=O)oc2c1 > 100 µM (inactive)

Repeat with O=C(O)c1c(CC(Cc2ccccc2)C(=O)O)ccc2c1CCC2 (centres undefined) > 100 µM (inactive)

----------
- Test system: SF-539
- ASSAY INFO: NCI tumour cell line growth inhibition, 48 h
Calls of active or inactive are those of the source. Rule as the data show it: active = GI50 up to about 1.1 µM and inactive = higher.
Output constraint: value belongs to 1 = active, 0 = inactive

I would be grateful if you could indicate the recorded call for O=C(O)c1c2c(cc3c(=O)cc(-c4ccccc4)oc13)CCCC2 . 0

Query Nc1cc(OCC2CCCCC2)nc(N)n1 next 0

Likewise for Nc1ccc(/C=C/c2ccc3cccnc3c2)cc1 ? 0

Please give the result for N#CCCc1nc2ccc(Br)cc2c(=O)n1-c1ccc(O)c([N+](=O)[O-])c1 too. 0

Now consider CS/C(=N\C(=S)N(C)C)N(c1ccccc1)c1nc(N(C)C)s[s+]1 and answer again. 0

Query O=C(O)CCSCCCN1C(=O)c2ccccc2C1=O next 0

Then what about the molecule COc1ccc(NC(C)=O)c(C(=O)CCNC(C)=O)c1 ? 0

Next molecule: C=C1CCCC2[C@](C)(CC3=C(Cl)C(=O)C=C(OC)C3=O)C(C)CC[C@]12C (some centres undefined) 0

Then Cc1nc2c(o1)/C(=N\c1ccccc1)c1ccccc1/C2=N/c1ccccc1 ? 0

What do you get for COC(=O)C(COC(C)=O)NC(=O)/C=C/c1ccc(O)c(OC(C)=O)c1 (centres undefined) ? 0

Can you handle Cc1cn(C2CC(/[N+]([O-])=N\Nc3ccc([N+](=O)[O-])cc3)C(CO)O2)c(=O)[nH]c1=O (centres undefined) next? 0

O=C(O)/C=C/c1ccncc1 , same question. 0

Same for O=C1NC(N2CCCCC2)=N/C1=C\c1ccccc1 0

Next record, please: CCOC(=O)C1c2[nH]c3ccccc3c2CCN1C(=O)c1ccc(OC)o1 (centres undefined) 0

Now the molecule CO/N=C(\C)CCC#Cc1ccccc1C(=O)OC 0

Quick one: O=C1NC2C=CN(Cc3ccccc3)C=C2C(=O)N2CCCC12 (centres undefined) 0

Then CC1(c2cc3c(cc2Br)OCO3)SCCCS1 ? 0

Please answer likewise for CCOC(=O)c1c(Nc2ccccc2)sc2cccnc12 0

Similarly, CCC1(N)C(=O)OCc2c1cc1n(c2=O)Cc2cc3ccccc3nc2-1 (centres undefined) ? 0

Can you check C[n+]1c(-c2ccc(/C=C/C=N\NC(=O)c3ccc(C(=O)N/N=C\C=C\c4ccc(-c5cn6ccccc6[n+]5C)cc4)cc3)cc2)cn2ccccc21 next? 0

Param item: O=C(O)CC[N+]1=CCC(c2ccccc2)(c2ccccc2)O1 0

Now try O=C1c2c(O)cccc2Cc2cccc(O)c21 [ANTHRALIN] . 1

What would you report for COC(=O)c1c2c(cc3c1CCC3)CCC2 ? 0

// same read-out, input: COC(OC)C1(c2ccccc2)Oc2ccccc2C1=O (centres undefined) 0
